assay: CCTE_Simmons_CellTiterGLO_HEK293T: Viability Assessment in CCTE's Assays for Thyroperoxidase (TPO) Inhibition, Simmons Lab (AID 2283665)
Records with an inconclusive call do not appear. Active and inactive are the calls of the source. How the source made its calls: active means hit-call score of the fitted dose curve at least 0.9, where 1 is the maximum; inconclusive means response in the unintended direction; inactive means score below 0.9.
Field 'call' accepts active, inactive

q: Which outcome did this test record for the compound CC(=O)OC/C=C(\C)CCC=C(C)C ?
a: active

q: Recorded test outcome, item Cc1ccc(N(C)C)cc1
a: inactive

q: Each compound tested received a call. Report the one for C=CCc1ccc(O)c(OC)c1 .
a: inactive

q: Per the assay record, what outcome was assigned to CC=Cc1ccc(O)c(OC)c1 ?
a: inactive

q: Record lookup: outcome of this test for Nc1ccc(S(=O)(=O)c2ccc(N)cc2)cc1 ?
a: inactive

q: Tell me the recorded outcome of this test for CCNc1cccc(C)c1 .
a: inactive

q: Record request — test call for CC1=C(/C=C/C(C)=C/C=C/C(C)=C/CO)C(C)(C)CCC1
a: active

q: Each compound tested received a call. Report the one for CCCc1cc(=O)[nH]c(=S)[nH]1 .
a: inactive

q: Tell me the recorded outcome of this test for Cc1oc(-c2ccccc2)nc1CCOc1cccc2c1ccn2CCC(=O)O .
a: inactive

q: Assay result, entry Cc1cccc(C)c1O — outcome?
a: inactive

q: What classification did Cc1ccc(C)c(O)c1C end up with in this test?
a: inactive

q: Hi team, can someone confirm the assay call for CC(C)(C)c1cc(O)c(C(C)(C)C)cc1O ?
a: active

q: Identify the outcome logged in this assay for the compound shown: COc1ccc(C)cc1N
a: inactive

q: In this assay, the call recorded for CN1CCCC1=O was what?
a: inactive

q: // param item: Cc1c(C(=O)O)c(O)cc2c1C(=O)c1c(O)c([C@@H]3O[C@H](CO)[C@@H](O)[C@H](O)[C@H]3O)c(O)c(O)c1C2=O ; yields the recorded call
a: active
